assay_method_text: Partition coefficient Kp (n-octanol / phosphate buffered saline)
Format: physicochemical
condition_info: n-octanol vs phosphate buffered saline, PBS, pH = 7.4
reported_endpoint: Partition coefficient, Kp
# answer = number (no unit)

Example cases with answers are listed next.
{"columns": ["compound", "Partition coefficient, Kp"],
 "data": [
  ["CC1=C(CCC(=O)O)c2cc3[nH]c(cc4nc(cc5[nH]c(cc1n2)c(C)c5C(C)O)C(C)=C4C(C)O)c(C)c3CCC(=O)O (stereo not shown) [Porphyrin HpIX, reference compound]", 1.5],
  ["O=C([O-])c1c(Cl)c(Cl)c(Cl)c(Cl)c1-c1c2cc(Br)c(=O)c(Br)c-2oc2c(Br)c([O-])c(Br)cc12.[Na+].[Na+]", 1.1]
]}

q: Dear colleague, I am looking for the recorded Partition coefficient, Kp of the following compound: O=C1OC2(c3cc(I)c(O)c(I)c3Oc3c2cc(I)c(O)c3I)c2c(Cl)c(Cl)c(Cl)c(Cl)c21
a: 11.5

q: Partition coefficient, Kp for O.O=C([O-])c1ccccc1-c1c2cc(I)c(=O)c(I)c-2oc2c(I)c([O-])c(I)cc12.[Na+].[Na+] ?
a: 1.9

---

assay_method_text: Toxicology data (LD50), murine administration
Type: in vivo
condition_info: mouse, in vivo; murine intravenous (i.v.) administration
reported_endpoint: LD50 (mg/kg)
Give the number; mg/kg is assumed, so skip it.

q: Could you share which LD50 value was measured for CC1(C)C(/C=C/C=C/C=C/C=C2\N(CCCCS(=O)(=O)O)c3ccc4ccccc4c3C2(C)C)=[N+](CCCCS(=O)(=O)[O-])c2ccc3ccccc3c21 [Indocyanine Green, reference compound] ?
a: 60

---

assay_method_text: Toxicology data (LD50), murine administration
Format: in vivo
condition_info: murine oral (p.o.) administration
Documented LD50 p.o. across a set of compounds

q: What measured LD50 p.o. goes with O.O=C([O-])c1ccccc1-c1c2cc(I)c(=O)c(I)c-2oc2c(I)c([O-])c(I)cc12.[Na+].[Na+] ?
a: >1,000 mg/kg

q: Fill blank: measured LD50 p.o. of the compound O=C([O-])c1c(Cl)c(Cl)c(Cl)c(Cl)c1-c1c2cc(Br)c(=O)c(Br)c-2oc2c(Br)c([O-])c(Br)cc12.[Na+].[Na+] is ____.
a: 310 mg/kg

q: GET /values?readout=LD50 p.o.&item= CC1=C(CCC(=O)O)c2cc3[nH]c(cc4nc(cc5[nH]c(cc1n2)c(C)c5C(C)O)C(C)=C4C(C)O)c(C)c3CCC(=O)O (stereo not shown) [Porphyrin HpIX, reference compound]
a: >1,000 mg/kg

q: // query LD50 p.o. value for entry O=C1OC2(c3cc(I)c(O)c(I)c3Oc3c2cc(I)c(O)c3I)c2c(Cl)c(Cl)c(Cl)c(Cl)c21
a: >1,000 mg/kg
